- tested target: BRAF V600E (Homo sapiens, UniProt P15056, V600E)
- Sequence (P15056 whole entry V600E): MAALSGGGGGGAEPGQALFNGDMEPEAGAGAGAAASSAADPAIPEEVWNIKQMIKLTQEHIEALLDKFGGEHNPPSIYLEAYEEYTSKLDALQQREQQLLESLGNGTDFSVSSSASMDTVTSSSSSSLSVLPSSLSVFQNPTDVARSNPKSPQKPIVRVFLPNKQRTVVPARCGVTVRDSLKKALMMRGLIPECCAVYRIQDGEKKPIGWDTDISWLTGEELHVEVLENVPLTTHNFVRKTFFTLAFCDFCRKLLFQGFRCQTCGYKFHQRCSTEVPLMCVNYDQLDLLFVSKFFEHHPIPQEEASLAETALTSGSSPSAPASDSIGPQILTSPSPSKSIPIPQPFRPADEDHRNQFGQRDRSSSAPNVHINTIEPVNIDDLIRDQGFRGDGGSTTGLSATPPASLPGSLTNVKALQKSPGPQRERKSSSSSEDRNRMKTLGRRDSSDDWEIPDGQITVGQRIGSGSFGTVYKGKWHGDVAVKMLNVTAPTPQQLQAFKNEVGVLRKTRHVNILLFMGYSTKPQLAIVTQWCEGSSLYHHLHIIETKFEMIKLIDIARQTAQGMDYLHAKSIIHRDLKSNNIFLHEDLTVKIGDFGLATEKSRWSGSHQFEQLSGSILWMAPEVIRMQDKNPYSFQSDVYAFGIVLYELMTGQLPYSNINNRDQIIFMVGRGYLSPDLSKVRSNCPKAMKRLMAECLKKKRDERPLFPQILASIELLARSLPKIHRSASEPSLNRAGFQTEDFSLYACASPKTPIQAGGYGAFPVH
- protocol notes: HiBiT cellular BRAF^V600E degradation assay
- Assay type: cell-based
- reported conditions: A375.10 cells, 24 h; concentration at which 50% of total cellular BRAF^V600E is degraded
measurement kind: DC50 (nM)
# value in nM; strip the unit string

compound	tested target	DC50 (nM)
CCN(C)S(=O)(=O)Nc1ccc(F)c(Oc2ccc3ncn(C4CCC5(CC4)CCN(C(=O)CN4CCC(c6ccc(NC7CCC(=O)NC7=O)cc6F)CC4)CC5)c(=O)c3c2)c1C#N (stereo not shown) [Example 30]	BRAF V600E (Homo sapiens, UniProt P15056, V600E)	16.4

## Task Provide the documented DC50 with BRAF V600E (Homo sapiens, UniProt P15056, V600E) as the system for CO[C@H]1CCN(S(=O)(=O)Nc2ccc(F)c(Oc3ccc4ncn(-c5cnc(N6CCN(C(=O)CN7CCC(c8ccc(N[C@H]9CCC(=O)NC9=O)cc8F)CC7)CC6)nc5)c(=O)c4c3)c2C#N)C1 [Example 111]
## Result 18.6

## Task Lookup N#Cc1c(NS(=O)(=O)N2C[C@H]3C[C@H]3C2)ccc(F)c1Oc1ccc2ncn(-c3cnc(N4CCN(C(=O)CN5CCC(c6ccc(N[C@H]7CCC(=O)NC7=O)cc6F)CC5)CC4)nc3)c(=O)c2c1 [Example 128]
## Result 19.5

## Task Lookup N#Cc1c(NS(=O)(=O)N2CCCCC2)ccc(F)c1Oc1ccc2ncn(-c3cnc(N4CCN(C(=O)CN5CCC(c6ccc(N[C@@H]7CCC(=O)NC7=O)cc6F)CC5)CC4)nc3)c(=O)c2c1 [Example 106]
## Result 43.6
